Sourced from the supplement of paper PMC6089552

System: A673/TR/shEF
assay procedure: cell viability (LOESS-normalised, relative to median of negative controls) (log2 ratio); higher = more viable cells (less compound effect), active = hit call of the paper (over 3 MAD below the median)
experimental parameters: 0.025 µM; library screen: screen1; EWS-FLI1 expression: low (doxycycline-induced shRNA knockdown); treatment time: 72 h
The whole screen tested about 3,200 compounds, of which about 300 (9.4%) showed activity. Shown is part of a subset that was picked to be rich in actives.
Assign cell viability (log2) to each entry below.
The response must contain the number and no unit.

Could you tell me which cell viability (log2) is on file for CC1CNCCN1S(=O)(=O)c1cccc2cnccc12 (configuration not stated) ?
0.0557

Check "Cc1ccc(S(=O)(=O)/C=C/C#N)cc1" too.
-0.0315

Check "N#C/C(=C\c1cc(Cl)cc(Cl)c1)c1cccnc1" too.
0.0254

Check "CCCCCCCCCCCCCCCC(=O)C1=C(O)[C@@H](CO)OC1=O" too.
0.0909

Check "O=c1c(O)c(-c2ccc(O)c(O)c2)oc2cc(O)cc(O)c12" too.
0.00571

Check "N#CC(=C(N)Sc1ccccc1N)C(C#N)=C(N)Sc1ccccc1N" too.
-0.0593

Check "COc1c(C=O)c(O)cc2c1C(=O)c1ccccc1C2=O" too.
0.0031

----------
Tested on: A673/TR/shEF
assay procedure: cell viability (LOESS-normalised, relative to median of negative controls) (log2 ratio); higher = more viable cells (less compound effect), active = hit call of the paper (over 3 MAD below the median)
experimental parameters: 8.3 µM; library screen: screen3; EWS-FLI1 expression: low (doxycycline-induced shRNA knockdown); treatment time: 72 h
Hit rate of the full screen: of about 3,200 compounds, about 300 (9.4%) showed activity. This excerpt belongs to a sample that is enriched for actives.
Assign cell viability (log2) to each entry below.
The response must contain the number and no unit.

Could you tell me which cell viability (log2) is on file for "C/C(=C\C(=O)Nc1ccccc1C(=O)O)c1ccc2ccccc2c1" ?
0.0177

Check "COCCn1c2c([n+](Cc3cnccn3)c1C)C(=O)c1ccccc1C2=O" too.
-4.28

Check "C#Cc1cccc(Nc2ncnc3cc(OCCOC)c(OCCOC)cc23)c1" too.
0.0233

Check "Nc1ccc(S(=O)(=O)Nc2ncccn2)cc1" too.
0.0153

Check "C#Cc1cccc(Nc2ncnc3cc(OC)c(OCCCCCCC(=O)NO)cc23)c1" too.
-0.618

Check "CO[C@H]1C[C@@H]2CC[C@@H](C)[C@@](O)(O2)C(=O)C(=O)N2CCCC[C@H]2C(=O)O[C@H]([C@H](C)C[C@@H]2CC[C@@H](OC(=O)C(C)(CO)CO)[C@H](OC)C2)CC(=O)[C@H](C)/C=C(\C)[C@@H](O)[C@@H](OC)C(=O)[C@H](C)C[C@H](C)/C=C/C=C/C=C/1C" too.
-0.678

Check "Nc1ncnc2c1ncn2[C@@H]1O[C@H](CO)[C@@H](O)[C@@H]1O" too.
0.127

Check "Cc1nc(Nc2ncc(C(=O)Nc3c(C)cccc3Cl)s2)cc(N2CCN(CCO)CC2)n1" too.
-1.34

----------
Tested on: A673/TR/shEF
assay procedure: cell viability (LOESS-normalised, relative to median of negative controls) (log2 ratio); higher = more viable cells (less compound effect), active = hit call of the paper (over 3 MAD below the median)
experimental parameters: 0.308 µM; library screen: screen3; EWS-FLI1 expression: high (no doxycycline); treatment time: 72 h
The campaign covered roughly 3,200 compounds. About 300 (9.4%) showed activity. The entries come from a sample that favours actives as a whole.
// one of active, inactive, no free text

Per the records of this test, what outcome belongs to "COc1ccc(Cl)cc1C(=O)NCCc1ccc(S(=O)(=O)NC(=O)NC2CCCCC2)cc1" ?
inactive

Check "C/C(=C\C(=O)Nc1ccccc1C(=O)O)c1ccc2ccccc2c1" too.
inactive

Check "CO[C@H]1CC2CC[C@@H](C)[C@@](O)(O2)C(=O)C(=O)N2CCCC[C@H]2C(=O)O[C@H]([C@H](C)C[C@@H]2CC[C@@H](OP(C)(C)=O)[C@H](OC)C2)CC(=O)[C@H](C)/C=C(\C)[C@@H](O)[C@@H](OC)C(=O)[C@H](C)C[C@H](C)/C=C/C=C/C=C/1C" too.
active

Check "CCN(CC)CC(=O)Nc1c(C)cccc1C" too.
inactive

Check "c1cc(CN2CCCNCCNCCCNCC2)ccc1CN1CCCNCCNCCCNCC1" too.
inactive

Check "CCCCC(=O)N(Cc1ccc(-c2ccccc2-c2nn[nH]n2)cc1)[C@H](C(=O)O)C(C)C" too.
inactive

Check "COc1cc(Nc2c(C#N)cnc3cc(OCCCN4CCN(C)CC4)c(OC)cc23)c(Cl)cc1Cl" too.
inactive

Check "CC[C@H](CO)Nc1nc(NCc2ccccc2)c2ncn(C(C)C)c2n1" too.
inactive

Check "Cn1cc(C2=C(c3ccc(Cl)cc3Cl)C(=O)NC2=O)c2ccccc21" too.
inactive

----------
System: A673/TR/shEF
assay procedure: cell viability (LOESS-normalised, relative to median of negative controls) (log2 ratio); higher = more viable cells (less compound effect), active = hit call of the paper (over 3 MAD below the median)
experimental parameters: 0.25 µM; library screen: screen1; EWS-FLI1 expression: low (doxycycline-induced shRNA knockdown); treatment time: 72 h
Among all 3,200 compounds or so, about 300 (9.4%) showed activity. Only a selection was taken, and actives are over-represented in it overall.
// assign yes if cell viability (log2) falls strictly below 0.07, else no (ties count as no)

A record lists CC1CCC2(OC1)OC1CC3C4CCC5C[C@@H](O)CCC5(C)C4=CCC3(C)C1[C@@H]2C (stereo not given in full) . Is its cell viability (log2) below 0.07?
yes

Check "COc1ccc(OC)c(CN2CCN(Cc3ccc(OC)c(OC)c3)CC2)c1" too.
yes

Check "CC(C)(O)CC[C@@H](O)[C@@](C)(O)[C@H]1CC[C@@]2(O)C3=CC(=O)[C@@H]4C[C@@H](O)[C@@H](O)C[C@]4(C)[C@H]3CC[C@]12C" too.
no

Check "CSc1nnc(-c2ccccc2)c(-c2ccccc2)n1" too.
yes

Check OC[C@H]1O[C@@H](O[C@H]2[C@H](O)[C@@H](O)C(O)O[C@@H]2CO)[C@H](O)[C@@H](O)[C@@H]1O (stereo not given in full) too.
yes

Check "COc1ccc(Cl)cc1C(=O)NCCc1ccc(S(=O)(=O)NC(=O)NC2CCCCC2)cc1" too.
yes

Check "Cc1sc2c(=O)n3c(nc2c1C(=O)NCCc1ccccc1)CCCCC3" too.
yes

Check "CC1(C)C(=O)C=C[C@]2(C)[C@H]3CC[C@@]4(C)[C@H](c5ccoc5)OC(=O)[C@H]5O[C@]54[C@]3(C)C=C[C@@H]12" too.
yes

Check "COc1ccc(/C=C/C(=O)O)cc1O" too.
yes

Check CSCCC(N)C(=O)NC(CC(C)C)C(=O)NC(Cc1ccccc1)C(=O)O (stereo not given) too.
yes

Check "CC(=O)Oc1ccc2c(c1)CC[C@@H]1[C@@H]2CC[C@]2(C)[C@@H](O)CC[C@@H]12" too.
yes

Check "CCc1c(C)c(C#N)c2nc3ccccc3n2c1N1CCN(C)CC1" too.
no

Check "NC(=O)c1ccccc1NC(=O)c1cc2ccccc2o1" too.
no

Check "COc1cc(OC)c2c(c1)O[C@H](c1cc(OC)c(OC)c(OC)c1)[C@H](OC(=O)c1cc(OC)c(OC)c(OC)c1)C2" too.
yes

Check "C=C(C)Cn1c(COc2ccc(Cl)cc2Cl)n[nH]c1=S" too.
yes

Check CC(C)c1c(O)ccc2c1CCC1[C@@](C)(C=O)CCC[C@]21C (stereo not given in full) too.
no

Check "COc1ccc(OC)c(CN2CCN(Cc3cc(OC)c(OC)cc3OC)CC2)c1" too.
no

Check "CCOc1ccc2nc(SC)nc(C)c2c1" too.
no

Check CC=C(C)C(=O)OC1[C@@H]2C=C3C4CC(=O)O[C@@H](c5ccoc5)[C@]4(C)CCC3[C@@](C)(C2=O)[C@@H](C(O)C(=O)OC)C1(C)C (stereo not given in full) too.
yes

----------
Test system: A673/TR/shEF
assay procedure: cell viability (LOESS-normalised, relative to median of negative controls) (log2 ratio); higher = more viable cells (less compound effect), active = hit call of the paper (over 3 MAD below the median)
experimental parameters: 2.5 µM; library screen: screen2; EWS-FLI1 expression: high (no doxycycline); treatment time: 72 h
Screen size: about 3,200 compounds; about 300 (9.4%) showed activity. For the sample, actives were picked, then their nearest neighbours and some compounds at random.
// one of active, inactive, no free text

Per the records of this test, what outcome belongs to "COc1cc([C@@H]2c3cc4c(cc3[C@@H](O[C@@H]3O[C@@H]5CO[C@@H](C)O[C@H]5[C@H](O)[C@H]3O)[C@H]3COC(=O)[C@H]23)OCO4)cc(OC)c1O" ?
active

Check COc1cc(NC(C)CCCN)c2ncccc2c1 (stereo not given) too.
inactive

Check CCCCCCCC/C=C/CCCCCCCC(=O)OC(CO)COC(=O)CCCCCCCCCCCCCCC (stereo not given) too.
inactive

Check "CCCCCCCCCCCCCCC[C@H](O)[C@H](N)CO" too.
inactive

Check CCCCCCCCCCCCCCCCCC(=O)OC(CC(=O)O)C[N+](C)(C)C (stereo not given) too.
inactive

Check "COc1cccc(NC(=O)/C=C/c2ccc(Cl)cc2)c1" too.
inactive

Check "O=C(Nc1cccc(C(=O)Nc2ccc(S(=O)(=O)O)c3cc(S(=O)(=O)O)cc(S(=O)(=O)O)c23)c1)Nc1cccc(C(=O)Nc2ccc(S(=O)(=O)O)c3cc(S(=O)(=O)O)cc(S(=O)(=O)O)c23)c1" too.
inactive

Check NC(Cc1ccc(F)cc1)C(=O)O (stereo not given) too.
inactive

Check CCCCCCCCCCCCCCCC(=O)OC(CC(=O)[O-])C[N+](C)(C)C (stereo not given) too.
inactive

Check CCCCCCCCCCCCCCCCCC(=O)NCC(COP(=O)([O-])OCC[N+](C)(C)C)OCC (stereo not given) too.
inactive
